Each entry below carries its reported D2 duration.
# assaySystem: D(2) dopamine receptor (Homo sapiens)
# measurementProtocol: […] D2 duration was determined using electrically stimulated guinea-pig isolated trachea superfusion system
# Format: functional
# testContext: Cavia porcellus, target entry is the homologue from another species
quantityName: D2 duration (min)

1. O=C(CCOCCc1ccccc1)NCCNCCc1ccc(O)c2nc(O)sc12; 150
2. CN(CCCS(=O)(=O)CCOCCc1ccccc1)CCc1ccc(O)c2nc(O)sc12; 150
3. O=S(=O)(CCCNCCc1ccc(O)c2nc(O)sc12)CCOCCc1ccccc1; 270
4. O=c1[nH]c2c(O)ccc(CCNCCCSCCOCCc3ccccc3)c2s1; 270
5. O=C(CCCCCNCCc1ccc(O)c2nc(O)sc12)NCCc1ccccc1; 90
6. O=c1[nH]c2c(O)ccc(CCNCCCS(=O)(=O)CCCOCCc3ccccc3)c2s1; 270
7. Oc1nc2c(O)ccc(CCNCCCCCCOCCc3ccccc3)c2s1; 270

Data origin: ChEMBL document CHEMBL1145849
